Hello, the source for this data is patent US20150376269A1, in case you need it.

Each entry below carries its recorded 50 nM SRA + 5 uM apoL1 peptide binding (RU).
experimental system: T1, serum resistance-associated protein (SRA) from Trypanosoma brucei rhodesiense, recombinant SRA (SEQ ID NO: … (Trypanosoma brucei rhodesiense, UniProt O96637 31-274))
T1 construct: also called SRA protein
T1 sequence: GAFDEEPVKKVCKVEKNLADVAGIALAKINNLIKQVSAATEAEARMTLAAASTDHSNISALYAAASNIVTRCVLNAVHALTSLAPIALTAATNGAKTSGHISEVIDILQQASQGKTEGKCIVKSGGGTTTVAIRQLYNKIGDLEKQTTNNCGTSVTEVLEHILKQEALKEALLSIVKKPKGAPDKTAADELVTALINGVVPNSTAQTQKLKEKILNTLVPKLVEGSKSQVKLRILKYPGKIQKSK
assay text: SPR, mAb captured, pH 4.5, 25C; competitor biotin-apoL1 peptide
measure: 50 nM SRA + 5 uM apoL1 peptide binding (RU)

>>> quantitative_result("H2bM10093N (antibody, V domains shown, Chimeric antibody, human variable domains and mouse constant domains; also called H2aM10093N; H2M10093N) VH: EVQLVESGGGLVKPGGSLRLSCVASGFTLSGYSMNWVRQAPGKGLEWVSSISTSSSYIYYADSVQGRFTISRDNAKNSLYLQMNSLRAEDTAVYYCVRKGANWIYFDYWGQGTLVTVSS VL: DIQMTQSPSSVSASVGDRVTITCRASQGISSLLAWFQQKPGKAPNLLIYAASSLQSGVPSRFSGSGSGTDFTLTISSLQPEDFATYYCQQAKSFPFTFGPGTKVDIK")
4
>>> quantitative_result("H1H10061P (antibody, V domains shown, Fully human antibody with human IgG1 Fc (prefix H1H)) VH: QVQLVESGGGVVQPGNSLRLSCAASGFTFSAYGMHWVRQAPGKGLEWVAVISYDGSNEFYADSVKGRFTIFRDNSKNMLYLQMNSLRVEDTSIYYCAKDRGLGVYYFFYGMDVWGQGTTVTVSS VL: DIVMTQSPDSLVVSLGERATINCKSSQSLLYSSSNNNYLTWYQQKPGRPPKLLIYWASTRESGVPDRFSGSGSGTDFTLTISSLQAEDVAIYYCQQNYITPLTFGGGTKVEIK")
-5
>>> quantitative_result("H1H10056P (antibody, V domains shown, Fully human antibody with human IgG1 Fc (prefix H1H)) VH: QVQLVESGGGVVQPGRSLRLSCSASGFTFSLYGMHWIRQAPGKGLEWVAVISYDGSNTYYGDSVKGRFTISRDNSKNTLYLQMNSLRTEDTAIYYCAKVYNWNYLFDYWGQGTLVTVSS VL: EIVLTQSPDTLSLSPGERATLSCRASQNVNNNFLAWYQQKPGQAPRLLIYGASSRATDIPERFSGSGSGTDFTLTISRLEPEDFAVYYCLHYVNSRTFGQGTKVEIK")
-4
>>> quantitative_result("H2aM10201N (antibody, V domains shown, Chimeric antibody, human variable domains and mouse constant domains (mouse Fc, prefix H2aM); also called H2M10201N) VH: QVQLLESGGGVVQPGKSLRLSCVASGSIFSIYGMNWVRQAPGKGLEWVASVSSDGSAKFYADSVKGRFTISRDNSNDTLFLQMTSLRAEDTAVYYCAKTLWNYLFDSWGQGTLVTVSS VL: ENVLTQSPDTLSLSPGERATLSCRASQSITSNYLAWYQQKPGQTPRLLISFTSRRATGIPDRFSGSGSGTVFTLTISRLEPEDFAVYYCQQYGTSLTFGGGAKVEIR")
42
>>> quantitative_result("H2aM10285N (antibody, V domains shown, Chimeric antibody, human variable domains and mouse constant domains (mouse Fc, prefix H2aM); also called H2M10285N) VH: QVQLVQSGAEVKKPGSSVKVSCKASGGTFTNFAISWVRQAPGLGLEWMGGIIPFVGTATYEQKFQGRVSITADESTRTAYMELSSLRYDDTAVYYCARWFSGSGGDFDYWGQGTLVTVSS VL: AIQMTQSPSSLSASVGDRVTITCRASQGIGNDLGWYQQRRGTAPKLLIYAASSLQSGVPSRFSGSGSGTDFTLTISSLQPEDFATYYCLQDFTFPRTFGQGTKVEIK")
8
